- testProtocol: Binding affinity to potassium channel IKr
Flag rule - IC50 less than 6000 nM flags YES; the remaining entries get NO.

These recorded examples may help you get a feel for the data.
>  <compound>
C[C@@H](O[C@H]1CN2C(=O)[C@H]3C[C@H](NCc4ccccc4)C[C@H]3[C@H]2[C@@H]1c1ccc(F)cc1)c1cc(C(F)(F)F)cc(C(F)(F)F)c1

>  <answerLabel>
YES

$$$$
>  <compound>
C[C@@H](O[C@H]1CN2C(=O)CC[C@H]2[C@@H]1c1ccc(F)cc1)c1cc(C(F)(F)F)cc(C(F)(F)F)c1

>  <answerLabel>
YES

$$$$

Criterion: IC50 strictly below 6000 nM. Is it met by C[C@@H](O[C@H]1CN2C(=O)C(N)C[C@H]2[C@@H]1c1ccc(F)cc1)c1cc(C(F)(F)F)cc(C(F)(F)F)c1 (some centres not stated) ?
NO

Criterion: IC50 strictly below 6000 nM. Is it met by C[C@@H](O[C@H]1CN2C(=O)CC(N)[C@H]2[C@@H]1c1ccc(F)cc1)c1cc(C(F)(F)F)cc(C(F)(F)F)c1 (some centres not stated) ?
NO

Criterion: IC50 strictly below 6000 nM. Is it met by C[C@@H](O[C@H]1CN2C(=O)C3CN(C4=CC(=O)CC4)CC3[C@H]2[C@@H]1c1ccc(F)cc1)c1cc(C(F)(F)F)cc(C(F)(F)F)c1 (single isomer, unassigned) [FIRST ELUDED ISOMER] ?
YES

Criterion: IC50 strictly below 6000 nM. Is it met by "C[C@@H](O[C@H]1CN2C(=O)[C@H]3C[C@@H](NCc4ccccc4)C[C@H]3[C@H]2[C@@H]1c1ccc(F)cc1)c1cc(C(F)(F)F)cc(C(F)(F)F)c1" ?
YES

Criterion: IC50 strictly below 6000 nM. Is it met by "C[C@@H](O[C@H]1CN2C(=O)[C@H]3C[C@@](C)(O)C[C@H]3[C@H]2[C@@H]1c1ccc(F)cc1)c1cc(C(F)(F)F)cc(C(F)(F)F)c1" ?
YES

###

- testProtocol: Binding affinity to sodium channel
The following molecules are listed with their measured pIC50 values.
Entry type: numeric. Quantity: pIC50, the -log10 of concentration in molar units.

Here are 4 molecules together with their reported answers.
>  <molecule>
C[C@@H](O[C@H]1CN2C(=O)[C@H]3C[C@H](N)C[C@H]3[C@H]2[C@@H]1c1ccc(F)cc1)c1cc(C(F)(F)F)cc(C(F)(F)F)c1

>  <valueObserved>
6.28

$$$$
>  <molecule>
C[C@@H](O[C@H]1CN2C(=O)C(N)C[C@H]2[C@@H]1c1ccc(F)cc1)c1cc(C(F)(F)F)cc(C(F)(F)F)c1 (some centres not stated)

>  <valueObserved>
6.62

$$$$
>  <molecule>
C[C@@H](O[C@H]1CN2C(=O)[C@H]3C[C@@H](N)C[C@H]3[C@H]2[C@@H]1c1ccc(F)cc1)c1cc(C(F)(F)F)cc(C(F)(F)F)c1

>  <valueObserved>
6.15

$$$$
>  <molecule>
C[C@@H](O[C@H]1CN2C(=O)CC(N)[C@H]2[C@@H]1c1ccc(F)cc1)c1cc(C(F)(F)F)cc(C(F)(F)F)c1 (some centres not stated)

>  <valueObserved>
5.11

$$$$

Which pIC50 value belongs to "C[C@@H](O[C@H]1CN2C(=O)CC[C@H]2[C@@H]1c1ccc(F)cc1)c1cc(C(F)(F)F)cc(C(F)(F)F)c1" ?
5.76

Which pIC50 value belongs to "C[C@@H](O[C@H]1CN2C(=O)[C@H]3C[C@H](NCc4ccccc4)C[C@H]3[C@H]2[C@@H]1c1ccc(F)cc1)c1cc(C(F)(F)F)cc(C(F)(F)F)c1" ?
6.68
